Target: MBP-FoxP1dN (Mus musculus, UniProt P58462 326-579)
Sequence: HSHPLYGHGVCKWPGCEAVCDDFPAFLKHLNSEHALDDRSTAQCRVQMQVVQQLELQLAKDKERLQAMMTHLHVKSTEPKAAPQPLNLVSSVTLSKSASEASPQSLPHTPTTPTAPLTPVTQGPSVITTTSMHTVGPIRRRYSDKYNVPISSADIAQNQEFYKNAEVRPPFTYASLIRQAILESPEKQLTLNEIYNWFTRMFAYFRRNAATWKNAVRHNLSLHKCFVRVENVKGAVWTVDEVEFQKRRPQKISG
Experiment: PD-seq (MBP pull-down with sequencing); 20 mM Tris-HCl pH 7.5, 100 mM NaCl, 1.5 mM MgCl2, 0.4 uM protein, 0.1 uM dsDNA library, 30 min, room temperature, amylose pull-down; high values mean tight binding
Conditions: protein: recombinant; tags: His6-MBP; chain copies: 2; dsDNA, one strand shown
In all, about 16,000 sequences were measured (“rpm ratio (pull-down/input)”: median about 0.94, highest 2% from about 1.7 on). The full list was thinned out, with the highest values kept by preference.
experimentalReadout: binding signal

1) GATGATTGTTCTCCCAGCTGATGAATTCTGTACTTCGAGTAAACAAATTTTCCTAATCTTTCTGTTCAAGCGCCATCTAC: 0.932 RPM ratio (pull-down/input)
2) GATGATTGTTCTCCCAGCTGATGAATTTTAGGTGTCGAGTAAACAAATTTTCCTAATCTTTCTGTTCAAGCGCCATCTAC: 0.902 RPM ratio (pull-down/input)
3) GATGATTGTTCTCCCAGCTGATGAATTACAAGGTTCGAGTAAACAAATTTTCCTAATCTTTCTGTTCAAGCGCCATCTAC: 1.09 RPM ratio (pull-down/input)
4) GATGATTGTTCTCCCAGCTGATGAATTGAGGCTGTCGAGTAAACAAATTTTCCTAATCTTTCTGTTCAAGCGCCATCTAC: 0.891 RPM ratio (pull-down/input)
5) GATGATTGTTCTCCCAGCTGATGAATTACACAGATCGAGTAAACAAATTTTCCTAATCTTTCTGTTCAAGCGCCATCTAC: 1.18 RPM ratio (pull-down/input)
6) GATGATTGTTCTCCCAGCTGATGAATTTGTAAAATCGAGTAAACAAATTTTCCTAATCTTTCTGTTCAAGCGCCATCTAC: 1.24 RPM ratio (pull-down/input)
7) GATGATTGTTCTCCCAGCTGATGAATTGTGTACTTCGAGTAAACAAATTTTCCTAATCTTTCTGTTCAAGCGCCATCTAC: 1.84 RPM ratio (pull-down/input)
8) GATGATTGTTCTCCCAGCTGATGAATTGCTGTTTTCGAGTAAACAAATTTTCCTAATCTTTCTGTTCAAGCGCCATCTAC: 2.45 RPM ratio (pull-down/input)
9) GATGATTGTTCTCCCAGCTGATGAATTGTATATCTCGAGTAAACAAATTTTCCTAATCTTTCTGTTCAAGCGCCATCTAC: 1.36 RPM ratio (pull-down/input)
10) GATGATTGTTCTCCCAGCTGATGAATTAGAAAGGTCGAGTAAACAAATTTTCCTAATCTTTCTGTTCAAGCGCCATCTAC: 0.826 RPM ratio (pull-down/input)
11) GATGATTGTTCTCCCAGCTGATGAATTACAATTGTCGAGTAAACAAATTTTCCTAATCTTTCTGTTCAAGCGCCATCTAC: 1.4 RPM ratio (pull-down/input)
12) GATGATTGTTCTCCCAGCTGATGAATTCCTCTGATCGAGTAAACAAATTTTCCTAATCTTTCTGTTCAAGCGCCATCTAC: 0.844 RPM ratio (pull-down/input)
13) GATGATTGTTCTCCCAGCTGATGAATTCTGGAGATCGAGTAAACAAATTTTCCTAATCTTTCTGTTCAAGCGCCATCTAC: 0.812 RPM ratio (pull-down/input)
14) GATGATTGTTCTCCCAGCTGATGAATTCCCGCTTTCGAGTAAACAAATTTTCCTAATCTTTCTGTTCAAGCGCCATCTAC: 0.937 RPM ratio (pull-down/input)
15) GATGATTGTTCTCCCAGCTGATGAATTAGTCTGGTCGAGTAAACAAATTTTCCTAATCTTTCTGTTCAAGCGCCATCTAC: 0.822 RPM ratio (pull-down/input)
16) GATGATTGTTCTCCCAGCTGATGAATTTAGGCTATCGAGTAAACAAATTTTCCTAATCTTTCTGTTCAAGCGCCATCTAC: 0.955 RPM ratio (pull-down/input)
17) GATGATTGTTCTCCCAGCTGATGAATTTGTTTCGTCGAGTAAACAAATTTTCCTAATCTTTCTGTTCAAGCGCCATCTAC: 1.3 RPM ratio (pull-down/input)
18) GATGATTGTTCTCCCAGCTGATGAATTTACACAATCGAGTAAACAAATTTTCCTAATCTTTCTGTTCAAGCGCCATCTAC: 1.87 RPM ratio (pull-down/input)
19) GATGATTGTTCTCCCAGCTGATGAATTTGCTGTTTCGAGTAAACAAATTTTCCTAATCTTTCTGTTCAAGCGCCATCTAC: 1.33 RPM ratio (pull-down/input)
20) GATGATTGTTCTCCCAGCTGATGAATTGTACCACTCGAGTAAACAAATTTTCCTAATCTTTCTGTTCAAGCGCCATCTAC: 0.996 RPM ratio (pull-down/input)
21) GATGATTGTTCTCCCAGCTGATGAATTTCAGGTATCGAGTAAACAAATTTTCCTAATCTTTCTGTTCAAGCGCCATCTAC: 0.919 RPM ratio (pull-down/input)
22) GATGATTGTTCTCCCAGCTGATGAATTTGTACCATCGAGTAAACAAATTTTCCTAATCTTTCTGTTCAAGCGCCATCTAC: 1.17 RPM ratio (pull-down/input)
23) GATGATTGTTCTCCCAGCTGATGAATTGTGTATATCGAGTAAACAAATTTTCCTAATCTTTCTGTTCAAGCGCCATCTAC: 1.9 RPM ratio (pull-down/input)
24) GATGATTGTTCTCCCAGCTGATGAATTACCAGGTTCGAGTAAACAAATTTTCCTAATCTTTCTGTTCAAGCGCCATCTAC: 0.873 RPM ratio (pull-down/input)
25) GATGATTGTTCTCCCAGCTGATGAATTCATCGCCTCGAGTAAACAAATTTTCCTAATCTTTCTGTTCAAGCGCCATCTAC: 0.873 RPM ratio (pull-down/input)
26) GATGATTGTTCTCCCAGCTGATGAATTTTTACAATCGAGTAAACAAATTTTCCTAATCTTTCTGTTCAAGCGCCATCTAC: 1.23 RPM ratio (pull-down/input)
27) GATGATTGTTCTCCCAGCTGATGAATTCCGACACTCGAGTAAACAAATTTTCCTAATCTTTCTGTTCAAGCGCCATCTAC: 0.88 RPM ratio (pull-down/input)
28) GATGATTGTTCTCCCAGCTGATGAATTAATGCGCTCGAGTAAACAAATTTTCCTAATCTTTCTGTTCAAGCGCCATCTAC: 1.26 RPM ratio (pull-down/input)
29) GATGATTGTTCTCCCAGCTGATGAATTTTGTACTTCGAGTAAACAAATTTTCCTAATCTTTCTGTTCAAGCGCCATCTAC: 0.97 RPM ratio (pull-down/input)

* * *

Target: MBP-FoxP1dN (Mus musculus, UniProt P58462 326-579)
Sequence: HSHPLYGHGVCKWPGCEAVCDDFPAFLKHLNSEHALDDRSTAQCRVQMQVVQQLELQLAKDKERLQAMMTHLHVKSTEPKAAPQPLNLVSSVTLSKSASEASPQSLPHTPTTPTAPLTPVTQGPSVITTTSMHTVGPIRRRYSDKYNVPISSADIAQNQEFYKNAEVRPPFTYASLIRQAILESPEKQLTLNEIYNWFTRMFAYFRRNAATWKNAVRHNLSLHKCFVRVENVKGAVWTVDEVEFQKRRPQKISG
Assay: PD-seq (MBP pull-down with sequencing); 20 mM Tris-HCl pH 7.5, 100 mM NaCl, 1.5 mM MgCl2, 0.4 uM protein, 0.1 uM dsDNA library, 30 min, room temperature, amylose pull-down; high values mean tight binding
Settings: protein: recombinant; tags: His6-MBP; chain copies: 2; dsDNA, one strand shown
Whole data set: some 16,000 sequences, median “rpm ratio (pull-down/input)” near 0.94, cut for the highest 2% near 1.7. This is one part of a sample in which the highest values are shown more often than they occur.
experimentalReadout: binding signal

1) GATGATTGTTCTCCCAGCTGATGAATTTATTATATCGAGTAAACAAATTTTCCTAATCTTTCTGTTCAAGCGCCATCTAC: 1.22 RPM ratio (pull-down/input)
2) GATGATTGTTCTCCCAGCTGATGAATTTATATTATCGAGTAAACAAATTTTCCTAATCTTTCTGTTCAAGCGCCATCTAC: 2.04 RPM ratio (pull-down/input)
3) GATGATTGTTCTCCCAGCTGATGAATTATATCTATCGAGTAAACAAATTTTCCTAATCTTTCTGTTCAAGCGCCATCTAC: 0.985 RPM ratio (pull-down/input)
4) GATGATTGTTCTCCCAGCTGATGAATTATTTATATCGAGTAAACAAATTTTCCTAATCTTTCTGTTCAAGCGCCATCTAC: 1.75 RPM ratio (pull-down/input)
